- ASSAY_REMARKS: Solubility assessment of amorphous RAD1901-2HCl in water/organic solvent system
- Assay type: physicochemical
- CONDITION_SET: EtOH/H2O (90:10), organic solvent or mixture, thermodynamic from solid, EtOH/H2O (90:10); sample ID C1; read-out: Solubility assessment 10 vol.
PROPERTY_MEASURED: solubility

CCNCCc1ccc(CN(CC)c2cc(OC)ccc2[C@@H]2CCc3cc(O)ccc3C2)cc1.Cl.Cl [amorphous RAD1901-2HCl] :: > 100 mg/mL

---

- ASSAY_REMARKS: Solubility assessment of amorphous RAD1901-2HCl
- Format: physicochemical
- CONDITION_SET: organic solvent or mixture, thermodynamic from solid; Propyl acetate; sample ID B2; read-out: Solubility assessment 10 vol.
- Method: In a scale-up preparation of amorphous RAD1901-2HCl, RAD1901-2HCl (600 mg) was dissolved in water (20 vol., 12 mL) and filtered to remove any remaining solid particles. The solution was then aliquoted into 24 HPLC vials, frozen in a dry ice/acetone bath and the solvent removed by lyophilisation. Solids produced by lyophilization were used directly in solubility assessment and polymorph screens in Example 4. […]
PROPERTY_MEASURED: solubility

CCNCCc1ccc(CN(CC)c2cc(OC)ccc2[C@@H]2CCc3cc(O)ccc3C2)cc1.Cl.Cl [amorphous RAD1901-2HCl] :: < 100 mg/mL
